Field: pIC50. Provide a value for each of the compounds that follow.
pIC50 is defined as minus the log10 of a concentration measured in mol/L.

Prompt: Please indicate recorded pIC50 of `COc1ccc([C@H]2[C@H](C(=O)O)[C@@H](c3ccc4c(c3)OCO4)CN2CC(=O)Nc2c(Br)cccc2Br)cc1` measured with Endothelin-1 receptor (Homo sapiens).
Sequence (P25101 whole entry): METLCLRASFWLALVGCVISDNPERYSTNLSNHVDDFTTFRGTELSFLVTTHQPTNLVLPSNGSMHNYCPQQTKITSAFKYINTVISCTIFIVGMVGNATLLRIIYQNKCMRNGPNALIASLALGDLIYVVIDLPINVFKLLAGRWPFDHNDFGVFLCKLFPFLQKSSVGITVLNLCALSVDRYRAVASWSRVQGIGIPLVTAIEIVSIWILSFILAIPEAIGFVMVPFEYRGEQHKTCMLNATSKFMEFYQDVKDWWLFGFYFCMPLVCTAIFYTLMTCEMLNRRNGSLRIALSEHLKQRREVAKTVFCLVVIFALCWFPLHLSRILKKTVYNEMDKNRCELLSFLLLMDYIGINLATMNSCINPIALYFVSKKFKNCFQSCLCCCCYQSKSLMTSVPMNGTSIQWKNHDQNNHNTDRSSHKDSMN
Completion: 7.21

Prompt: Please indicate recorded pIC50 of `COc1ccc([C@H]2[C@H](C(=O)O)[C@@H](c3ccc4c(c3)OCO4)CN2CC(=O)Nc2c(C)cccc2C(C)C)cc1` measured with Endothelin-1 receptor (Homo sapiens).
Completion: 7.00

Prompt: Please indicate recorded pIC50 of `COc1ccc([C@H]2[C@H](C(=O)O)[C@@H](c3ccc4c(c3)OCO4)CN2CC(=O)Nc2cc(C)cc(C)c2)cc1` measured with Endothelin-1 receptor (Homo sapiens).
Completion: 6.80

----------
Field: Ratio. Provide a value for each of the compounds that follow.
Molecular target: Endothelin receptor, ET-A/ET-B (Homo sapiens) (UniProt P24530+P25101)
Assay: Ratio of binding affinity towards hETA to hETB
Type: protein assay
The answer should be written as a number, with no unit following it.

Prompt: Give the reported value of Ratio for this record: `CCc1cccc(OC)c1NC(=O)CN1C[C@H](c2ccc3c(c2)OCO3)[C@@H](C(=O)O)[C@@H]1c1ccc(OC)cc1`
Completion: 34

Prompt: Give the reported value of Ratio for this record: CCc1cccc(CC)c1NC(=O)CN1C[C@H](c2ccc3c(c2)OCO3)[C@@H](C(=O)O)[C@@H]1c1ccc(OC)cc1 (stereo in doubt; 19)
Completion: 32

Prompt: Give the reported value of Ratio for this record: `CCc1cccc(C)c1NC(=O)CN1C[C@H](c2ccc3c(c2)OCO3)[C@@H](C(=O)O)[C@@H]1c1ccc(OC)cc1`
Completion: 4

Prompt: Give the reported value of Ratio for this record: `CCc1cc(F)cc(CC)c1NC(=O)CN1C[C@H](c2ccc3c(c2)OCO3)[C@@H](C(=O)O)[C@@H]1c1ccc(OC)cc1`
Completion: 24

Prompt: Give the reported value of Ratio for this record: `CCc1cccc(CC)c1NC(=O)CN1C[C@H](c2ccc3c(c2)OCO3)[C@@H](C(=O)O)[C@@H]1c1ccc(OC(C)C)cc1`
Completion: 220

Prompt: Give the reported value of Ratio for this record: `CCCc1cccc(CC)c1NC(=O)CN1C[C@H](c2ccc3c(c2)OCO3)[C@@H](C(=O)O)[C@@H]1c1ccc(OC)cc1`
Completion: 0.2

Prompt: Give the reported value of Ratio for this record: `COc1ccc([C@H]2[C@H](C(=O)O)[C@@H](c3ccc4c(c3)OCO4)CN2CC(=O)Nc2cc(C)cc(C)c2)cc1`
Completion: 0.06

----------
Biological target: UniProtKB P24530
Sequence (P24530 whole entry): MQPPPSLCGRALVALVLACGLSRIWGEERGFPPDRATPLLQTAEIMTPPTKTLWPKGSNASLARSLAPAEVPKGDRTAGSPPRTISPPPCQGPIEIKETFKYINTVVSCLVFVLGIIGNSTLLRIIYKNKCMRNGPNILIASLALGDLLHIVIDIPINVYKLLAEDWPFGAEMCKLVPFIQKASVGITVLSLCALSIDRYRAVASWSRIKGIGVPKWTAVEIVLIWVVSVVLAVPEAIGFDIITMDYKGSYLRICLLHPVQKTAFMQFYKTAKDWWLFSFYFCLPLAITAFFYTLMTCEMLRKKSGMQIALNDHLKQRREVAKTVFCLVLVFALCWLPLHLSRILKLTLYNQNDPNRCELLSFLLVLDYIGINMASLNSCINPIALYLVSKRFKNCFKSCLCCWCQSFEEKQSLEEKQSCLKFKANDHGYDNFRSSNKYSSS
Field: pIC50. Provide a value for each of the molecules that follow.
pIC50 is defined as minus the log10 of a concentration measured in mol/L.

Prompt: Give the reported value of pIC50 for this record: `CCCc1cccc(CC)c1NC(=O)CN1C[C@H](c2ccc3c(c2)OCO3)[C@@H](C(=O)O)[C@@H]1c1ccc(OC)cc1`
Completion: 7.09

Prompt: Give the reported value of pIC50 for this record: `COc1ccc([C@H]2[C@H](C(=O)O)[C@@H](c3ccc4c(c3)OCO4)CN2CC(=O)Nc2c(Br)cccc2Br)cc1`
Completion: 8.00

Prompt: Give the reported value of pIC50 for this record: CCc1cccc(CC)c1NC(=O)CN1C[C@H](c2ccc3c(c2)OCO3)[C@@H](C(=O)O)[C@@H]1c1ccc(OC)cc1 (stereo in doubt; 19)
Completion: 8.85

Prompt: Give the reported value of pIC50 for this record: `COc1ccc([C@H]2[C@H](C(=O)O)[C@@H](c3ccc4c(c3)OCO4)CN2CC(=O)Nc2cccc(C)c2C)cc1`
Completion: 7.09

Prompt: Give the reported value of pIC50 for this record: `CCc1cccc(CC)c1NC(=O)CN1C[C@H](c2ccc3c(c2)OCO3)[C@@H](C(=O)O)[C@@H]1c1ccc(CCOC)cc1`
Completion: 8.42

Prompt: Give the reported value of pIC50 for this record: CCCOc1ccc([C@H]2[C@H](C(=O)O)[C@@H](c3ccc4c(c3)OCO4)CN2CC(=O)Nc2c(CC)cccc2CC)cc1 (stereo in doubt; 32) [A-192621]
Completion: 7.92

Prompt: Give the reported value of pIC50 for this record: CCCOc1ccc([C@H]2[C@H](C(=O)O)[C@@H](c3ccc4c(c3)OCO4)CN2CC(=O)Nc2c(CC)cccc2CC)cc1 (stereo in doubt; 38) [A-192621]
Completion: 8.19

Prompt: Give the reported value of pIC50 for this record: `COc1ccc([C@H]2[C@H](C(=O)O)[C@@H](c3ccc4c(c3)OCO4)CN2CC(=O)Nc2c(C(C)C)cccc2C(C)C)cc1`
Completion: 7.59
